# Read-out: E-selectin (Homo sapiens) (UniProt P16581)
# Sequence (P16581 whole entry, looked up): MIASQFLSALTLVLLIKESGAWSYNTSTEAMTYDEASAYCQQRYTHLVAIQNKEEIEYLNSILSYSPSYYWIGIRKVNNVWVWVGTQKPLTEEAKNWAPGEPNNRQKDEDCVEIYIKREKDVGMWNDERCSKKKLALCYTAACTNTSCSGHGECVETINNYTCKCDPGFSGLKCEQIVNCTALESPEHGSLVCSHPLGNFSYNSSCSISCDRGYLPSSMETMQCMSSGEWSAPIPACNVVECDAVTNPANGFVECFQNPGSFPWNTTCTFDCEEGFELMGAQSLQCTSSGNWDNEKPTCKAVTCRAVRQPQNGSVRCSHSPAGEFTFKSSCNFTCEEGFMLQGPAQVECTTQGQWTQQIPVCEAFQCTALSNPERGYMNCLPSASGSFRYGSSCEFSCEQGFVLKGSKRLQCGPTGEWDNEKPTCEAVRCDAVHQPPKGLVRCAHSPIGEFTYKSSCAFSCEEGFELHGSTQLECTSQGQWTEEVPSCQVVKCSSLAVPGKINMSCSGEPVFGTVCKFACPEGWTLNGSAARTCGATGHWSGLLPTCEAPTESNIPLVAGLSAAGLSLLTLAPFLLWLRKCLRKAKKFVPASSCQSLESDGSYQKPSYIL
# EXPERIMENT_DESCRIPTION: BSK_3C_Eselectin: BioMAP Diversity Plus: 3C Assay for Eselectin Biomarker Activity (AID 2283015);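 as to outcome: cell surface E-selectin protein quantified by ELISA 24 h after dosing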
# DETAILS: primary human endothelial cells (HUVEC); actives raise or lower the signal
Active and inactive are the calls of the source. The calls were made as follows: active = hit-call score of the fitted dose curve at least 0.9, where 1 is the maximum; inactive = score below 0.9.
Write down one outcome, taken from active, inactive

compound=CN(C)C(=O)Nc1cccc(C(F)(F)F)c1 group=inactive
compound="COP(=O)(OC)OC(Br)C(Cl)(Cl)Br (centres undefined)" group=active
compound=CCOP(=S)(OCC)Oc1cc(C)nc(C(C)C)n1 group=inactive
compound="CC(Oc1cccc(Cl)c1)C(=O)O (centres undefined)" group=inactive
compound=COc1cc(OC)nc(Sc2cccc(Cl)c2C(=O)O)n1 group=inactive

Per the records of this test, what outcome belongs to `CNc1cnn(-c2cccc(C(F)(F)F)c2)c(=O)c1Cl` ?
inactive

Per the records of this test, what outcome belongs to `CCC(=O)Nc1ccc(Cl)c(Cl)c1` ?
inactive

Per the records of this test, what outcome belongs to `CCOP(=S)(OCC)SCCSCC` ?
inactive

Per the records of this test, what outcome belongs to `CSc1nc(NC(C)C)nc(NC(C)C)n1` ?
inactive

Per the records of this test, what outcome belongs to `Cc1cc(C2CC2)nc(Nc2ccccc2)n1` ?
inactive
